B1: ACSBG2 (parent)
chain: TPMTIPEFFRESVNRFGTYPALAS

# Variants of: B1
# TEST: protein stability index of a GFP-peptide fusion (GPS, HEK-293T) (PSI 1-6); higher = more stable;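 note: lentivirally expressed fusions sorted by FACS into six bins by GFP to DsRed ratio, PSI derived from sequencing read proportions per bin multiplied by bin number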
# MEASUREMENT_CONDITIONS: c terminus: a fixed tail appended
Classification field: YES = protein stability index at or over 2; NO = protein stability index under 2.

As a guide, the following entries are already answered.
TPMTIPEFFRESVNRFGTGPALAS ... YES
TPMTWPEFFRESVNRFGTYPALAS ... YES
TPMTIPEFFRESMNRFGTYPALAS ... YES
TPMTIPEFFRESCNRFGTYPALAS ... YES
TPMTIPEFFRESVFRFGTYPALAS ... NO
TPMTIPEFFRESVNRKGTYPALAS ... YES
TPMTIAEFFRESVNRFGTYPALAS ... NO
TPMTIPEFFRESVNRFGTYPMLAS ... YES

Check if protein stability index >= 2 (inclusive). Item: `TPMTIPEFFRISVNRFGTYPALAS` NO

Check if protein stability index >= 2 (inclusive). Item: `TPMTIPEFFRESVNRFGTQPALAS` YES

Check if protein stability index >= 2 (inclusive). Item: `TPMTIPVFFRESVNRFGTYPALAS` NO

Source listed as the supplement of paper PMC10567573.
